- experimental-protocol: Toxicity liver stage against HepG2, at 10uM
- Format: cell-based
- Design: test concentration 10 uM, cell line HepG2-A16-CD81EGFP
- test-settings: human, HepG2-A16-CD81EGFP cells; read-out: INHIBITION
test-readout: cytotoxicity at 10 µM (%)
Use % as the unit, but write only the number.

Query: cytotoxicity at 10 µM; subject: CCC(C)(C)NC(=O)c1nnn(-c2cccc3c2CCN(C)C3)c1C
-0.663

Query: cytotoxicity at 10 µM; subject: CN1CCN(C2CCN(Cc3noc(C4CC4)n3)CC2)C1=O
8.54

Query: cytotoxicity at 10 µM; subject: CN(C(=O)c1cccc(C(=O)NCC(F)(F)F)c1)c1ccccc1
-14.8

Query: cytotoxicity at 10 µM; subject: Cn1c(CN2CCCCC2)nnc1C1CCCN(C(=O)CCC(N)=O)C1 (stereo not drawn)
3.94

Query: cytotoxicity at 10 µM; subject: CCc1nccn1-c1cccc(C2CCN(C(=O)COC)CC2)n1
-14.9

Query: cytotoxicity at 10 µM; subject: COc1ccc(C)cc1CN(C)Cc1nc2c(cnn2C)c(=O)[nH]1
-5.33

Query: cytotoxicity at 10 µM; subject: O=C(Cc1ccc(F)cc1)N1CCn2c(Cn3cncn3)cnc2C1
-67.3

Query: cytotoxicity at 10 µM; subject: Cc1nnsc1C(=O)N1CCN(CC2CC2)[C@@H]2CS(=O)(=O)C[C@@H]21
0.445

Query: cytotoxicity at 10 µM; subject: O=C(c1cocn1)N1CCC2(CC1)CC(OCC1CC1)CO2 (stereo not drawn)
10

Query: cytotoxicity at 10 µM; subject: CN(Cc1cccc(F)c1)C(=O)CN1CCCCC1Cn1cncn1 (stereo not drawn)
-8.25

Query: cytotoxicity at 10 µM; subject: Cc1cc(N2CCCC(N(C)C)C2)n2nccc2n1 (stereo not drawn)
-43.4

Query: cytotoxicity at 10 µM; subject: CCc1ccc(CN2C[C@@H](C(=O)O)[C@H](c3ccccc3OC)C2)o1
-13.9

Query: cytotoxicity at 10 µM; subject: CC(c1nc(C2CC2)no1)N1CCc2c(ncn2C2CC2)C1 (stereo not drawn)
-2.52

Query: cytotoxicity at 10 µM; subject: CC(=O)N1CCC(c2nnc3ccc(C(=O)NCC(C)C)cn23)C1 (stereo not drawn)
-108

Query: cytotoxicity at 10 µM; subject: Cc1cc(CNc2cccc(C(=O)N(C)c3ccccc3)c2)no1
2.95

Query: cytotoxicity at 10 µM; subject: O=C1CCc2cc(S(=O)(=O)NCc3cc4n(n3)CCCNC4)ccc2N1
-5.38

Query: cytotoxicity at 10 µM; subject: O=C(NCC1CC1)C1CN(C(=O)c2cccc(Cl)c2)CC12CCOCC2 (stereo not drawn)
1.18

Query: cytotoxicity at 10 µM; subject: CC(C(=O)Nc1ccc(N2CCCC2)nc1)n1ccnc1 (stereo not drawn)
-8.53

Query: cytotoxicity at 10 µM; subject: O=C1N(Cc2ccccn2)C[C@H]2CN(C3CCC3)CCN12
-4.81

Query: cytotoxicity at 10 µM; subject: Cn1nc(C2CCCN(Cc3ccc(F)cc3)C2)c2nccnc21 (stereo not drawn)
-24.8

Query: cytotoxicity at 10 µM; subject: CN(CCO)Cc1nnc(C2CCN(C3CCCCC3)CC2)n1C
20.7

Query: cytotoxicity at 10 µM; subject: Cc1ccc(C(=O)N2CCc3c(CN4CCCC4)nn(C)c3C2)cc1C
-4.86

Query: cytotoxicity at 10 µM; subject: CCN1CCCC1CN(CCN(C)C)S(=O)(=O)c1ccccc1C#N (stereo not drawn)
-8.58
